biological target: CCR1 (Homo sapiens); test: Method B: calcium flux in CCR1 transfected cells (Calcium 4 dye, […] FDSS6000), block of the CCR1/MIP-1α interaction; format: cell-based; details: Method B: Calcium 4 dye, MIP-1alpha at EC80
ASSAY_READOUT: log10(IC50) (log10 of the value in nM)

INSERT INTO assay_data (compound, experimental_result) VALUES
  ('CCC(NC(=O)c1cncc2c1cnn2-c1ccc(F)cc1)C1CCN(S(C)(=O)=O)CC1 (centres unmarked)', 0.30),
  ('CC[C@H](NC(=O)c1cncc2c1cnn2-c1ccc(F)cc1)c1cc(N(C)C)nc(S(C)(=O)=O)c1', -0.70),
  ('C[C@H](NC(=O)c1cncc2c1cnn2-c1ccc(F)cc1)c1cc(N(C)CC(N)=O)nc(S(C)(=O)=O)c1', 0.00),
  ('CCC[C@H](NC(=O)c1cncc2c1cnn2-c1ccc(F)cc1)c1ccc(S(C)(=O)=O)nc1', -0.40),
  ('C[C@H](NC(=O)c1cncc2c1cnn2-c1ccc(F)cc1)c1ccc(S(C)(=O)=O)nc1', 0.48),
  ('CCC(CC)(NC(=O)c1cncc2c1cnn2-c1ccc(F)cc1)c1cnc(S(C)(=O)=O)s1', 1.45),
  ('CC[C@H](NC(=O)c1cncc2c1cnn2-c1ccc(F)cc1)c1ccc(OC)c(S(C)(=O)=O)c1', 0.78),
  ('CCC(NC(=O)c1cncc2c1cnn2-c1ccc(F)cc1)C1CCN(C(C)=O)CC1 (centres unmarked)', 1.00);

---

target: CCR1 (Homo sapiens, UniProt P32246); test: Method A: calcium flux in CCR1 transfected cells (Fluo-4 NW, FLIPR TETRA), block of the CCR1/MIP-1α interaction; format: cell-based; settings: Method A: Fluo-4 NW, MIP-1 alpha at EC80
Sequence (P32246 whole entry): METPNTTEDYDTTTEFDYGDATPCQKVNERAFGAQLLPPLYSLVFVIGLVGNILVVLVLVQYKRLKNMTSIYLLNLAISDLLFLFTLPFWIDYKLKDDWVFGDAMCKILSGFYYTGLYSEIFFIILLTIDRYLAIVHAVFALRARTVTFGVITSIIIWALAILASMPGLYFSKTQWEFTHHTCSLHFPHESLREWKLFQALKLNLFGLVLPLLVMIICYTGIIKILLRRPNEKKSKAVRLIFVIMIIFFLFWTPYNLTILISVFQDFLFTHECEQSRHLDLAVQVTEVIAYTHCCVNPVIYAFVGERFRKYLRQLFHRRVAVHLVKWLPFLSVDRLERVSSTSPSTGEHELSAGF
pIC50: −log10 of the molar value.
Each entry below lists one item and its recorded pIC50 value.
ASSAY_READOUT: pIC50

INSERT INTO assay_data (molecule, experimental_result) VALUES
  ('CCCC(NC(=O)c1cncc2c1cnn2-c1ccc(F)cc1)c1ccc(S(C)(=O)=O)nc1 (stereo not drawn)', 9.10),
  ('CC[C@H](NC(=O)c1cncc2c1cnn2-c1ccc(Cl)cc1)c1cncc(Br)c1', 9.22),
  ('C[C@H](NC(=O)c1cncc2c1cnn2-c1ccc(F)cc1)c1cncc(Br)c1', 9.00),
  ('CCC[C@H](NC(=O)c1cncc2c1cnn2-c1ccc(F)cc1)c1cncc(Br)c1', 9.70),
  ('COc1cc(CNC(=O)c2cncc3c2cnn3-c2ccc(F)cc2)ccc1S(C)(=O)=O', 8.40),
  ('C[C@H](NC(=O)c1cncc2c1cnn2-c1ccc(F)cc1)c1cncc(S(C)(=O)=O)c1', 8.52),
  ('CCCC(NC(=O)c1cncc2c1cnn2-c1ccc(F)cc1)c1cncc(S(C)(=O)=O)c1 (stereo not drawn)', 9.22),
  ('O=C(NCc1cc(Cl)cc(Cl)c1)c1cncc2c1cnn2-c1ccc(F)cc1', 8.15),
  ('C=CC[C@H](NC(=O)c1cncc2c1cnn2-c1ccc(F)cc1)c1ccnc(Br)c1', 9.52);

---

molecular target: CCR1 (Homo sapiens, UniProt P32246); assay: Method B: calcium flux in CCR1 transfected cells (Calcium 4 dye, […] FDSS6000), block of the CCR1/MIP-1α interaction; format: cell-based; details: Method B: Calcium 4 dye, MIP-1alpha at EC80
pIC50: −log10 of the molar value.
Each entry below lists one item and its recorded pIC50 value.
ASSAY_READOUT: pIC50

INSERT INTO measurements (smiles_entry, assay_readout, experimental_result) VALUES
  ('CC[C@H](NC(=O)c1cncc2c1cnn2-c1ccc(F)cc1)c1cnn(C)c1', 'pIC50', 7.96),
  ('CC[C@H](NC(=O)c1cncc2c1cnn2-c1ccc(F)cc1)c1nc(C(N)=O)cs1', 'pIC50', 8.10),
  ('O=C(N[C@@H](CO)c1ccnc(Br)c1)c1cncc2c1cnn2-c1ccc(F)cc1', 'pIC50', 8.70),
  ('CC[C@H](NC(=O)c1cncc2c1cnn2-c1ccc(F)cc1)c1cccnc1', 'pIC50', 8.10),
  ('CC[C@H](NC(=O)c1cncc2c1cnn2-c1ccc(F)cc1)c1csc(S(C)(=O)=O)c1', 'pIC50', 9.52);

---

target: CCR1 (Homo sapiens, UniProt P32246); assay: Method A: calcium flux in CCR1 transfected cells (Fluo-4 NW, FLIPR TETRA), block of the CCR1/MIP-1α interaction; type: cell-based; details: Method A: Fluo-4 NW, MIP-1 alpha at EC80
Each entry below lists one item and its recorded log10 of IC50 value.
ASSAY_READOUT: log10 of IC50 (log10 of the value in nM)

INSERT INTO assay_data (compound, target_or_test_system, experimental_result) VALUES
  ('CCC(NC(=O)c1cncc2c1cnn2-c1ccc(F)cc1)c1ccc(S(C)(=O)=O)nc1 (centres unmarked)', 'CCR1 (Homo sapiens, UniProt P32246)', 0.48),
  ('CC[C@H](NC(=O)c1cncc2c1cnn2-c1ccc(F)cc1)c1cncc(S(=O)(=O)CC)c1', 'CCR1 (Homo sapiens, UniProt P32246)', -0.40),
  ('O=C(NCc1ccc(S(=O)(=O)N2CCOCC2)cc1)c1cncc2c1cnn2-c1ccc(F)cc1', 'CCR1 (Homo sapiens, UniProt P32246)', 0.30),
  ('CC(CO)NS(=O)(=O)c1ccc(CNC(=O)c2cncc3c2cnn3-c2ccc(F)cc2)cc1 (centres unmarked)', 'CCR1 (Homo sapiens, UniProt P32246)', 0.30),
  ('CC(C)(CO)NS(=O)(=O)c1ccc(CNC(=O)c2cncc3c2cnn3-c2ccc(F)cc2)cc1', 'CCR1 (Homo sapiens, UniProt P32246)', -0.05),
  ('O=C(NCc1ccc(S(=O)(=O)N2CCC(O)C2)cc1)c1cncc2c1cnn2-c1ccc(F)cc1 (centres unmarked)', 'CCR1 (Homo sapiens, UniProt P32246)', -0.05),
  ('CC(NC(=O)c1cncc2c1cnn2-c1ccc(F)cc1)c1ccnc(Br)c1 (centres unmarked)', 'CCR1 (Homo sapiens, UniProt P32246)', 0.00),
  ('CCC[C@H](NC(=O)c1cncc2c1cnn2-c1ccc(F)cc1)c1cncc(S(N)(=O)=O)c1', 'CCR1 (Homo sapiens, UniProt P32246)', -0.52),
  ('CS(=O)(=O)Nc1ccc(CNC(=O)c2cncc3c2cnn3-c2ccc(F)cc2)cc1', 'CCR1 (Homo sapiens, UniProt P32246)', 0.85),
  ('CCCC(NC(=O)c1cncc2c1cnn2-c1ccc(Cl)cc1)c1ccnc(S(C)(=O)=O)c1 (centres unmarked)', 'CCR1 (Homo sapiens, UniProt P32246)', -0.40),
  ('CCCC(NC(=O)c1cncc2c1cnn2-c1ccc(Cl)cc1)c1ccnc(Br)c1 (centres unmarked)', 'CCR1 (Homo sapiens, UniProt P32246)', 0.30),
  ('CC(O)CNS(=O)(=O)c1ccc(CNC(=O)c2cncc3c2cnn3-c2ccc(F)cc2)cc1 (centres unmarked)', 'CCR1 (Homo sapiens, UniProt P32246)', 0.30),
  ('O=C(NCc1ccc(S(=O)(=O)N2CCC(O)CC2)cc1)c1cncc2c1cnn2-c1ccc(F)cc1', 'CCR1 (Homo sapiens, UniProt P32246)', 0.30),
  ('O=C(NCc1cc(C(F)(F)F)cc(C(F)(F)F)c1)c1cncc2c1cnn2-c1ccc(F)cc1', 'CCR1 (Homo sapiens, UniProt P32246)', 0.48),
  ('COCCN(c1ccc(CNC(=O)c2cncc3c2cnn3-c2ccc(F)cc2)cn1)S(C)(=O)=O', 'CCR1 (Homo sapiens, UniProt P32246)', 0.00),
  ('CCC[C@H](NC(=O)c1cncc2c1cnn2-c1ccc(F)cc1)c1cncc(S(=O)(=O)CCC(=O)OC)c1', 'CCR1 (Homo sapiens, UniProt P32246)', 0.30),
  ('O=C(NCc1ccnc(Br)c1)c1cncc2c1cnn2-c1ccc(F)cc1', 'CCR1 (Homo sapiens, UniProt P32246)', 0.30);

Where do the numbers come from? From patent US8063065B2.
